Target: soluble guanylate cyclase (sGC), α1 and β1 subunits of guanylate cyclase expressed in Sf9 cells (Homo sapiens, UniProt Q02108+Q02153)
Construct: made in house; host or cells: Sf9 insect cells (baculovirus co-infection)
Sequence (Q02108 1-690): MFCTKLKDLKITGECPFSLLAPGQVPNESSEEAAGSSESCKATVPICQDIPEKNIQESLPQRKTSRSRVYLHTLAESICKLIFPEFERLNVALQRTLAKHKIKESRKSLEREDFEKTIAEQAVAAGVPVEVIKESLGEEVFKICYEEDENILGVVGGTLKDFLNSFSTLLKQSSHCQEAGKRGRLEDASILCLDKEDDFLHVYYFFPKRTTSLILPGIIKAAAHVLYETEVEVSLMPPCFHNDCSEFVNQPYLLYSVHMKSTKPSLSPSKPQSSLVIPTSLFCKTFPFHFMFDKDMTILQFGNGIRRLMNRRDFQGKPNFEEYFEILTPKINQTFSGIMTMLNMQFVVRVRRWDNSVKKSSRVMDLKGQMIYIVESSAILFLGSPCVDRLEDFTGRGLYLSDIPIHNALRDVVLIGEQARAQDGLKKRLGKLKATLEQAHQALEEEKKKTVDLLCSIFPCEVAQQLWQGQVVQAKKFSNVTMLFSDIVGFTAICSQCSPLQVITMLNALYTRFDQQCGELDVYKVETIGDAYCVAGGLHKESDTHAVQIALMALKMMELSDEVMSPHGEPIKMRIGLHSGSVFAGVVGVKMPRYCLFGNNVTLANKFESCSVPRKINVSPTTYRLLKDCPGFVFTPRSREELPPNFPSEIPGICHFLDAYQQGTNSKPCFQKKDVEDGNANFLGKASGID
Sequence (Q02153 1-619): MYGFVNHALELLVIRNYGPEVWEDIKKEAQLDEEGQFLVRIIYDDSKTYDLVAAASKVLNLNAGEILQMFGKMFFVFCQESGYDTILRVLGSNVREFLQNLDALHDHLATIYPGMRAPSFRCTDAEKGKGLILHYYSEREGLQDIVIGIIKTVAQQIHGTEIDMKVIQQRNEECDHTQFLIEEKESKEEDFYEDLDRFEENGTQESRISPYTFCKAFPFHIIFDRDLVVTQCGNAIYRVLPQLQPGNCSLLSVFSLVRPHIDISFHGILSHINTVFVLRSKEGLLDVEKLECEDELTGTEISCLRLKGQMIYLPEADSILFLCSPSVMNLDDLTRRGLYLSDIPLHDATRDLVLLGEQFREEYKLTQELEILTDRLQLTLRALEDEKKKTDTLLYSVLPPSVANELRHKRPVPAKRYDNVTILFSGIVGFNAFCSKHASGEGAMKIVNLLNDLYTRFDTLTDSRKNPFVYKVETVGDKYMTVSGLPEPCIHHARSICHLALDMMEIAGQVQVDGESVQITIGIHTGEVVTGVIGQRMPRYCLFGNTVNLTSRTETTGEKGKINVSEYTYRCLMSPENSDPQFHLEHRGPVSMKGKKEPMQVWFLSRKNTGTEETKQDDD
Assay: Guanylate cyclase assay (formation of cyclic GMP from GTP)
Format: biochemical
Details: compound at 100 μM with 1 μM sodium nitro prusside (SNP); normalized with the activity of 100 μM YC-1 (without SNP) as 100%
Please respond with reported Mean efficacy of compound combined with 1 μM of SNP, [%] for every item in the list.
Give the value in % but do not write % after it.

Which value of Mean efficacy of compound combined with 1 μM of SNP, [%] has been reported for COc1cccc(Sc2ccccc2/C=C/C(=O)NC2CCC(O)CC2)c1 (stereo not shown) in the records?
175

Next entry: CC(CC(=O)NCCc1ccncc1)c1ccccc1Sc1ccc(Cl)cc1 (stereo not shown)
6

Next entry: CCC(O)CNC(=O)/C=C/c1ccccc1Sc1ccc(Cl)cc1 (stereo not shown)
305

Next entry: Cc1ccc(Sc2ccccc2/C=C/C(=O)NC(C)CCCC(C)(C)O)c(C)c1 (stereo not shown)
10

Next entry: `O=C(/C=C/c1ccccc1Sc1ccc(Cl)cc1Cl)NCCCCO`
110

Next entry: Cc1ccc(Sc2ccccc2/C=C/C(=O)NC2CCC(O)CC2)cc1 (stereo not shown)
58

Next entry: `CC(C)CCSc1ccccc1/C=C/C(=O)NCCCCO`
307

Next entry: `O=C(/C=C/c1c(F)cccc1Sc1ccc(Cl)cc1)NCCCCO`
69

Next entry: Cc1cccc(Sc2ccccc2/C=C/C(=O)NC2CCC(O)CC2)c1 (stereo not shown)
50

Next entry: COc1ccc(Sc2ccc(C)cc2)c(/C=C/C(=O)NC2CCC(O)CC2)c1 (stereo not shown)
89

Next entry: CC(O)CNC(=O)/C=C/c1ccccc1Sc1ccc(Cl)cc1 (stereo not shown)
405

Next entry: O=C(/C=C/c1cccnc1Sc1ccc(Cl)cc1Cl)NC1CCC(O)CC1 (stereo not shown)
138

Next entry: CC(CC(=O)N(C)C1CCN(C)CC1)c1ccccc1Sc1ccc(Cl)cc1 (stereo not shown)
7

Hey, just so you know, these numbers are from patent US20040121994A1.
